Assay: Human HepG2 cell viability assay in 384 well format
Assay type: toxicity, cell-based
Set-up: dose 125 nL, time 70.5 hour; concentration not given beside the values
Conditions: HepG2 cells, read-out: Inhibition
Reported cytotoxicity at 70.5 h values follow for various compounds
Hi! Could you send only the number? It should be in %, unit omitted.

CCNC(=O)N1CCC(Cc2cccc(C(N)=O)c2)C1 (configuration not stated) ... -5.09
CCC1(CC)C(=O)NC(=O)N/C1=N/c1cccc(OC)c1 ... 26.5
Cc1ccc(Nc2nccc(C3CN(C(C)C)C3)n2)nc1 ... 42.5

Exam item: Answer with the recorded cytotoxicity at 70.5 h for the compound listed here: COc1ccc(S(=O)(=O)NC(=O)C(C)OC)c(OC)c1 (configuration not stated)
Marked response: -2.74

* * *

Assay: Human HepG2 cell viability assay in 384 well format
Type: toxicity, cell-based
Design: dose 125 nL, time 70.5 hour; concentration not given beside the values
Settings: HepG2 cells, read-out: Inhibition
Measured quantity: cytotoxicity at 70.5 h (%)
Hi! Could you send only the number? It should be in %, unit omitted.

As a guide, the following entries are already answered.
CS(=O)(=O)CCC(=O)N(CCc1cccc(F)c1)C1CC1 ... -11.4
Cn1nc(CNC(=O)c2ccc3c(c2)OCO3)c2c1CCOC2 ... 5.45
COc1cccc(N2CCN(C(=O)C(O)CC(C)C)CC2=O)c1 (stereo not drawn) ... -2.41
Cc1ccc(C(=O)NCc2ccc(N(C)C)cc2)cn1 ... -10.4
CCOCc1ncn2c1CN(C(=O)Nc1ccccc1)CC2 ... -15.7

Exam item: Answer with the recorded cytotoxicity at 70.5 h for the compound listed here: Cc1noc(CCCNS(=O)(=O)N2CCCC2c2ccco2)n1 (stereo not drawn)
Marked response: -9.07

* * *

Assay: Human HepG2 cell viability assay in 384 well format
Assay type: toxicity, cell-based
Set-up: dose 125 nL, time 70.5 hour; concentration not given beside the values
Settings: HepG2 cells, read-out: Inhibition
Measured quantity: cytotoxicity at 70.5 h (%)
Hi! Could you send only the number? It should be in %, unit omitted.

As a guide, the following entries are already answered.
Fc1ccc(-n2cccn2)c(CN2CCCCC2CCn2ccnc2)c1 (configuration not stated) ... 1.83
Cn1cc(CCNC(=O)NCc2nnc3n2CCC3)cn1 ... -22.4
Cn1cc(C2COC3(CCN(C(=O)c4ccn(C)n4)CC3)C2)cn1 (configuration not stated) ... -14.5
CN1CCN(CC2CN(CC3CC3)Cc3nccn3C2)CC1 (configuration not stated) ... -6.02

Exam item: Answer with the recorded cytotoxicity at 70.5 h for the compound listed here: O=C(NCCn1ccnc1-c1cc2n(n1)CCCNC2)c1ccncc1
Marked response: -2.02

* * *

Test: Human HepG2 cell viability assay in 384 well format
Type: toxicity, cell-based
Set-up: dose 125 nL, time 70.5 hour; concentration not given beside the values
Conditions: HepG2 cells, read-out: Inhibition
Measured quantity: cytotoxicity at 70.5 h

Cc1c(Cn2c(=O)cnc3ccccc32)cnn1C ... -14.9%
c1cc(CN2CCO[C@@H]3CNC[C@@H]32)co1 ... 3.81%
Cc1cc(C)n(CC2CCCN2CCCS(C)(=O)=O)n1 (configuration not stated) ... -7.95%
c1ccc(Cn2cccn2)c(CN2CCCCC2CCn2ccnc2)c1 (configuration not stated) ... 0.54%
CC(C)[C@H]1CN(C2Cc3ccccc3C2)C[C@@H]1NS(C)(=O)=O ... 7.83%

Exam item: Answer with the recorded cytotoxicity at 70.5 h for the molecule listed here: CC(NCCCN1CCCC1=O)c1cc(Br)ccc1F (configuration not stated)
Marked response: -5.24%

Exam item: Answer with the recorded cytotoxicity at 70.5 h for the molecule listed here: Cc1cccc(N2CCOCC3(C2)CN(c2cncnc2)C(=O)CO3)n1 (configuration not stated)
Marked response: -6.08%

Exam item: Answer with the recorded cytotoxicity at 70.5 h for the molecule listed here: COCCC1COC2(CCN(C(=O)c3ccncc3)CC2)C1 (configuration not stated)
Marked response: 30.8%

Exam item: Answer with the recorded cytotoxicity at 70.5 h for the molecule listed here: N#Cc1ccc(N2CCCC2Cn2cncn2)nc1 (configuration not stated)
Marked response: -6.25%

Exam item: Answer with the recorded cytotoxicity at 70.5 h for the molecule listed here: CNC(=O)c1cnc(/C=C/c2cc(OC)c(OC)c(OC)c2)s1
Marked response: 3.41%

Exam item: Answer with the recorded cytotoxicity at 70.5 h for the molecule listed here: CC1(C)CNC(=O)CN(C(=O)COc2ccccc2)C1
Marked response: -14.2%

Exam item: Answer with the recorded cytotoxicity at 70.5 h for the molecule listed here: COCCN1CCC2(CC1)CC(c1cccnc1)C(=O)N2C (configuration not stated)
Marked response: 1.48%

Numbers sourced from ChEMBL document CHEMBL3507680.
